assayed target: hIBAT (Homo sapiens, UniProt Q12908)
Construct: kept under Puromycin selection
Sequence (Q12908 whole entry): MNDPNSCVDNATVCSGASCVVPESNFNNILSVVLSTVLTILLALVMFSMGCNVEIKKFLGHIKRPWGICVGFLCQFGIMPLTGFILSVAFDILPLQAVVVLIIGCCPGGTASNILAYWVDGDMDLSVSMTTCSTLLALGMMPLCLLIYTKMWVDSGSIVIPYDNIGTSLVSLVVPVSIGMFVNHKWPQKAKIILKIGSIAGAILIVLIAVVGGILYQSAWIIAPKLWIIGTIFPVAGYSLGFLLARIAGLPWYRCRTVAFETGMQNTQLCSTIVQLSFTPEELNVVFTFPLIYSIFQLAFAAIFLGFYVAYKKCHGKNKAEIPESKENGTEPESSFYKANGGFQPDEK
protocol description: IBAT (h/m) assay: 3H-taurocholic acid uptake in human IBAT-overexpressing cells
test parameters: 0.25 μM 3H-taurocholic acid + 5 μM cold taurocholic acid, 20 minutes at 37° C., highest test concentration 10 μM
pIC50: −log10 of the molar value.
measurement label: pIC50

The following compounds have reported results that may help.
- CCCCC1(CCCC)CN(c2ccc(F)cc2)c2cc(OC)c(CSCC(=O)O)cc2S(=O)(=O)C1 [Example 32]: 9.22
- CCCCC1(CC)CN(c2ccccc2)c2cc(OC)c(CSC(C)(C)C(=O)O)cc2S(=O)(=O)C1 (single isomer, unassigned) [26, enantiomer 1]: 6.71
- CCCCC1(CC)CN(c2ccc(F)cc2)c2cc(SC)c(CSCC(=O)O)cc2S(=O)(=O)C1 (single isomer, unassigned) [7, enantiomer 1]: 9.40
- CCCCC1(CCCC)CN(c2ccccc2)c2cc(OC)c(CSC(C)(C)C(=O)O)cc2S(=O)(=O)C1 [Example 43]: 6.06
- CCCCC1(CC)CN(c2ccc(F)cc2)c2cc(OC)c(CSC(C)(C)C(=O)O)cc2S(=O)(=O)C1 (racemic) [Example 33]: 6.53

1: CCCCC1(CCCC)CN(c2ccccc2)c2cc(SC)c(CSC(C)(C)C(=O)O)cc2S(=O)(=O)C1 [Example 17]
2: CCCCC1(CC)CN(c2ccc(F)cc2)c2cc(SC)c(CSCC(=O)O)cc2S(=O)(=O)C1 (racemic) [Example 6]
Hey, which is lower on measured pIC50, 1 or 2 ? Answer with the label corresponding to your selection. 1
(1: 7.06, 2: 9.22)

###

assayed target: hIBAT (Homo sapiens)
Construct: kept under Puromycin selection
protocol description: IBAT (h/m) assay: 3H-taurocholic acid uptake in human IBAT-overexpressing cells
test parameters: 0.25 μM 3H-taurocholic acid + 5 μM cold taurocholic acid, 20 minutes at 37° C., highest test concentration 10 μM
pIC50: −log10 of the molar value.
measurement label: pIC50

* CCCCC1(CC)CN(c2ccc(F)cc2)c2cc(OC)c(CSC(C)(C)C(=O)O)cc2S(=O)(=O)C1 (single isomer, unassigned) [34, enantiomer 1] | 6.79
* CCCCC1(C)CN(c2ccccc2)c2cc(SC)c(CSC(C)(C)C(=O)O)cc2S(=O)(=O)C1 (single isomer, unassigned) [19, enantiomer 1] | 6.72

###

assayed target: hLBAT (Homo sapiens, UniProt Q14973)
Construct: kept under Geneticin selection
Sequence (Q14973 1-349): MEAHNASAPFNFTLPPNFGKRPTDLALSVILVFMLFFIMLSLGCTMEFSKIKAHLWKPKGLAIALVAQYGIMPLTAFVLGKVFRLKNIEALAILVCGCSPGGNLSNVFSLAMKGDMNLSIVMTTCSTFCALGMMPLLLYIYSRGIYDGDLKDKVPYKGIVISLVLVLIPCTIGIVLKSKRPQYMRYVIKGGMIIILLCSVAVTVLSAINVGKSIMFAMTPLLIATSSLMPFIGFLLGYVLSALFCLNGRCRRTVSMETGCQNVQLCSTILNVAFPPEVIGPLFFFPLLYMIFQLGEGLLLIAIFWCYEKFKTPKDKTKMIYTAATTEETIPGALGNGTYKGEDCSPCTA
protocol description: LBAT (h/m) assay: 3H-taurocholic acid uptake in human LBAT-overexpressing cells
test parameters: 0.3 μM 3H-taurocholic acid + 7.5 μM cold taurocholic acid, 20 minutes at 37° C.
pIC50: −log10 of the molar value.
measurement label: pIC50

The following compounds have reported results that may help.
- CCCCC1(CC)CN(c2ccc(F)cc2)c2cc(OC)c(CSC(C)(C)C(=O)O)cc2S(=O)(=O)C1 (single isomer, unassigned) [34, enantiomer 1]: 6.96
- CCCCC1(C)CN(c2ccccc2)c2cc(SC)c(CSCC(=O)O)cc2S(=O)(=O)C1 (single isomer, unassigned) [5, enantiomer 2]: 5.36
- CCCCC1CN(c2ccccc2)c2cc(OC)c(CSCC(=O)O)cc2S(=O)(=O)N1C (single isomer, unassigned) [36, enantiomer 2]: 6.81

A: CCCCC1(C)CN(c2ccccc2)c2cc(SC)c(CSC(C)(C)C(=O)O)cc2S(=O)(=O)C1 (racemic) [Example 18]
B: CCCCC1(CCCC)CN(c2ccccc2)c2cc(SC)c(CSC(C)(C)C(=O)O)cc2S(=O)(=O)C1
C: CCCCC1(CC)CN(c2ccc(F)cc2)c2cc(SC)c(CSCC(=O)O)cc2S(=O)(=O)C1 (single isomer, unassigned) [7, enantiomer 2]
D: CCCCC1(CC)CN(c2ccccc2)c2cc(SC)c(CSCC(=O)O)cc2S(=O)(=O)C1 (single isomer, unassigned) [2, enantiomer 1]
Task field, ranking: reported pIC50, descending order. Please express your ranking as an ordered list of the labels. A, B, D, C
(A: 6.87, B: 6.67, D: 5.69, C: 5.31)

a: CCCC[C@@H]1CN(c2ccccc2)c2cc(OC)c(CSCC(=O)O)cc2S(=O)(=O)N1
b: CCCCC1(CC)CN(c2ccccc2)c2cc(SC)c(CSCC(=O)O)cc2S(=O)(=O)C1 (racemic) [Example 1]
c: CCCC[C@@H]1CN(c2ccccc2)c2cc(N(C)C)c(CSCC(=O)O)cc2S(=O)(=O)N1
Which order do these items take when sorted by rising pIC50? List them. Please express your ranking as an ordered list of the labels. b, c, a
(b: 5.42, c: 6.61, a: 6.85)

FYI, the data here is from patent US20240067617A1.
